# Population Tubulin-Different-Phenotype (%) annotations
- Tested on: Fibroblast
- Procedure Summary: Multiplex assay against human fibroblast
- Format: toxicity, cell-based
- Assay Conditions: 24 h, 10 µM, compound concentration 10 uM, replicate 1
Respond numerically; units are % and should not be typed.

# Molecule, System Under Test, Quantity Unit, Observed Value
rows = [
    ("CCCCC(=O)N(Cc1ccc(-c2ccccc2-c2nnn[nH]2)cc1)[C@H](C(=O)O)C(C)C", "Fibroblast", "%", 31),
]

Here is the next item to consider.
Task: May I ask what Population Tubulin-Different-Phenotype (%) has been recorded for N#Cc1cc(F)cc(-c2nc(-c3ccc(F)cn3)no2)c1 ?
Result: 22

----------
- System: HEK-293T
- Procedure Summary: Multiplex assay against HEK293T
- Assay type: toxicity, cell-based
- Assay Conditions: human, 24 h, 1 µM, compound concentration 1 uM, replicate 2
Population Mitochondria Different-Phenotype (%) below 40% gives condition not met; Population Mitochondria Different-Phenotype (%) at or above it gives condition met.

Use the examples below as a reference point.
# Molecule, Assigned Class
rows = [
    ("N#Cc1c(Oc2cccc(OS(=O)(=O)CCCC(F)(F)F)c2)cccc1C(F)(F)F", "condition met"),
    ("CCCCC1=NC2(CCCC2)C(=O)N1Cc1ccc(-c2ccccc2-c2nnn[nH]2)cc1", "condition met"),
    ("CC(C)COc1ccc(CNC(=O)N(Cc2ccc(F)cc2)C2CCN(C)CC2)cc1", "condition met"),
]

Task: Given the entry O=C(NCCN1CCC(n2c(=O)[nH]c3cc(Cl)ccc32)CC1)c1ccc(F)cc1 [HALOPEMIDE] , answer whether its Population Mitochondria Different-Phenotype (%) meets or surpasses 40%.
Result: condition not met

Task: Given the entry Cl.N=C(N)NC(=O)Cc1c(Cl)cccc1Cl [GUANFACINE HYDROCHLORIDE] , answer whether its Population Mitochondria Different-Phenotype (%) meets or surpasses 40%.
Result: condition met

Task: Given the entry CN1CCN(c2cc(-c3ccccc3)nc(N)n2)CC1 , answer whether its Population Mitochondria Different-Phenotype (%) meets or surpasses 40%.
Result: condition not met

Task: Given the entry CCCCC(=O)N(Cc1ccc(-c2ccccc2-c2nnn[nH]2)cc1)[C@H](C(=O)O)C(C)C , answer whether its Population Mitochondria Different-Phenotype (%) meets or surpasses 40%.
Result: condition not met

Task: Given the entry Cc1c(CC(=O)O)c2cccnc2n1Cc1ccc(S(C)(=O)=O)cc1C(F)(F)F , answer whether its Population Mitochondria Different-Phenotype (%) meets or surpasses 40%.
Result: condition not met

----------
- Test system: HEK-293T
- Procedure Summary: Multiplex assay against HEK293T
- Assay type: toxicity, cell-based
- Assay Conditions: human, 24 h, 10 µM, compound concentration 10 uM, replicate 2
Measured Attribute: Population Mitochondria Different-Phenotype (%)
Respond numerically; units are % and should not be typed.

Here are 6 compounds together with their reported answers.
# Compound, System Under Test, Observed Value
rows = [
    ("N#Cc1cc(F)cc(-c2nc(-c3ccc(F)cn3)no2)c1", "HEK-293T", 40),
    ("COC[C@@H](c1ccc(C(F)(F)F)cc1)N1CCN(C2(C)CCN(C(=O)c3c(C)ncnc3C)CC2)C[C@@H]1C.O=C(O)/C=C\\C(=O)O [VICRIVIROC MALEATE]", "HEK-293T", 70),
    ("Cc1c(CC(=O)O)c2cccnc2n1Cc1ccc(S(C)(=O)=O)cc1C(F)(F)F", "HEK-293T", 44),
    ("CC(/C=C1\\SC(=S)N(CCCC(=O)Nc2ccc(C(=O)O)c(O)c2)C1=O)=C\\c1ccccc1", "HEK-293T", 40),
    ("Cc1cnc(-c2cc(N3CCN(C(=O)CCS(C)(=O)=O)CC3)ncc2Cl)c(C)c1", "HEK-293T", 47),
    ("CC(=O)Nc1cccc2c1c(Sc1ccc(Cl)cc1)c(C)n2CC(=O)O", "HEK-293T", 45),
]

Task: May I ask what Population Mitochondria Different-Phenotype (%) has been recorded for COc1cccc2c1c(NS(=O)(=O)c1ccc(Cl)s1)nn2Cc1cccc(CNC(=O)C(C)(C)O)c1 ?
Result: 46

Task: May I ask what Population Mitochondria Different-Phenotype (%) has been recorded for N#Cc1c(Oc2cccc(OS(=O)(=O)CCCC(F)(F)F)c2)cccc1C(F)(F)F ?
Result: 68

Task: May I ask what Population Mitochondria Different-Phenotype (%) has been recorded for Cc1cccc(NC(=O)CN2CCC(c3ccccn3)CC2)c1.Cl.Cl ?
Result: 64

Task: May I ask what Population Mitochondria Different-Phenotype (%) has been recorded for Cc1onc(-c2ccccc2Cl)c1C(=O)N(C)c1ccc(Cl)cc1 ?
Result: 47

Task: May I ask what Population Mitochondria Different-Phenotype (%) has been recorded for CC(C)c1noc(N2CCC(COc3ccc(-c4ccc(S(C)(=O)=O)cc4)nc3)CC2)n1 ?
Result: 59

Task: May I ask what Population Mitochondria Different-Phenotype (%) has been recorded for Cc1noc(-c2ccc(-c3ccc(CC(=O)O)cc3)cc2)c1NC(=O)O[C@H](C)c1ccccc1Cl ?
Result: 53

Task: May I ask what Population Mitochondria Different-Phenotype (%) has been recorded for CCc1cc2cc(NS(=O)(=O)c3ccc(C#N)cc3)ccc2n(CC)c1=O ?
Result: 58

----------
# Population Normal (%) annotations
- Tested on: U2OS
- Procedure Summary: Multiplex assay against U2OS
- Type: toxicity, cell-based
- Assay Conditions: human, 24 h, 1 µM, compound concentration 1 uM, replicate 1
Respond numerically; units are % and should not be typed.

# Compound, System Under Test, Measured Attribute, Observed Value
rows = [
    ("NCCc1cn(S(=O)(=O)c2c(Cl)nc3sccn23)c2ccccc12.O=C(O)C(=O)O", "U2OS", "Population Normal (%)", 98),
    ("CCCOc1ccc2[nH]cc(C3=CCNCC3)c2n1.Cl", "U2OS", "Population Normal (%)", 98),
    ("COc1ccccc1N1CCN(C[C@@H](C(=O)NC(C)(C)C)c2ccccc2)CC1.Cl.Cl", "U2OS", "Population Normal (%)", 96),
]

Task: May I ask what Population Normal (%) has been recorded for CC(C)COc1ccc(CNC(=O)N(Cc2ccc(F)cc2)C2CCN(C)CC2)cc1 ?
Result: 97

Task: May I ask what Population Normal (%) has been recorded for CN[C@@H](C)C(=O)N[C@H](C(=O)N1CCC[C@H]1C(=O)Nc1snnc1-c1ccccc1)C1CCCCC1 ?
Result: 94

Task: May I ask what Population Normal (%) has been recorded for CCCCCC(O)/C=C/[C@H]1C(=O)CC(O)C1C/C=C\CCCC(=O)O (stereo partly specified) ?
Result: 98

----------
# Population Healthy Nuclei (%) annotations
- Test system: HEK-293T
- Procedure Summary: Multiplex assay against HEK293T
- Assay type: toxicity, cell-based
- Assay Conditions: human, 24 h, 10 µM, compound concentration 10 uM, replicate 2

# Compound, System Under Test, Population Healthy Nuclei (%)
rows = [
    ("CCc1cc2cc(NS(=O)(=O)c3ccc(C#N)cc3)ccc2n(CC)c1=O", "HEK-293T", "73%"),
    ("CC(C)c1noc(N2CCC(COc3ccc(-c4ccc(S(C)(=O)=O)cc4)nc3)CC2)n1", "HEK-293T", "74%"),
    ("CC(/C=C1\\SC(=S)N(CCCC(=O)Nc2ccc(C(=O)O)c(O)c2)C1=O)=C\\c1ccccc1", "HEK-293T", "79%"),
]

Here is the next item to consider.
Task: May I ask what Population Healthy Nuclei (%) has been recorded for COc1ccccc1N1CCN(C[C@@H](C(=O)NC(C)(C)C)c2ccccc2)CC1.Cl.Cl ?
Result: 76%

----------
- System: HEK-293T
- Procedure Summary: Multiplex assay against HEK293T
- Type: toxicity, cell-based
- Assay Conditions: human, 12 h, 10 µM, compound concentration 10 uM, replicate 2
Measured Attribute: Total Cell Count
Write the value as a bare number.

Task: May I ask what Total Cell Count has been recorded for NCCc1cn(S(=O)(=O)c2c(Cl)nc3sccn23)c2ccccc12.O=C(O)C(=O)O ?
Result: 209

Task: May I ask what Total Cell Count has been recorded for Cc1cnc(-c2cc(N3CCN(C(=O)CCS(C)(=O)=O)CC3)ncc2Cl)c(C)c1 ?
Result: 288

Task: May I ask what Total Cell Count has been recorded for Br.CS(=O)(=O)Nc1c(O)ccc2c1CCCC2C1=NCCN1 (stereo not given) ?
Result: 292

Task: May I ask what Total Cell Count has been recorded for CN1CCN(c2cc(-c3ccccc3)nc(N)n2)CC1 ?
Result: 296

Task: May I ask what Total Cell Count has been recorded for CC(C)c1noc(N2CCC(COc3ccc(-c4ccc(S(C)(=O)=O)cc4)nc3)CC2)n1 ?
Result: 279

----------
- Tested on: HEK-293T
- Procedure Summary: Multiplex assay against HEK293T
- Assay type: toxicity, cell-based
- Assay Conditions: human, 48 h, 10 µM, compound concentration 10 uM, replicate 2
Sorting guide: entries reporting Total Cell Count beneath 600 go in the Criterion met pile, the rest go in the Criterion not met pile.

Use the examples below as a reference point.
# Compound, Assigned Class
rows = [
    ("N#Cc1cc(F)cc(-c2nc(-c3ccc(F)cn3)no2)c1", "Criterion met"),
    ("CCCCC(=O)N(Cc1ccc(-c2ccccc2-c2nnn[nH]2)cc1)[C@H](C(=O)O)C(C)C", "Criterion not met"),
    ("Cc1onc(-c2ccccc2Cl)c1C(=O)N(C)c1ccc(Cl)cc1", "Criterion not met"),
    ("CCc1cc2cc(NS(=O)(=O)c3ccc(C#N)cc3)ccc2n(CC)c1=O", "Criterion met"),
    ("CC(/C=C1\\SC(=S)N(CCCC(=O)Nc2ccc(C(=O)O)c(O)c2)C1=O)=C\\c1ccccc1", "Criterion met"),
]

Task: Just wondering, is Total Cell Count of CC(C)(C)c1cc(NC(=O)Nc2ccc(-c3cn4c(n3)sc3cc(OCCN5CCOCC5)ccc34)cc2)no1 [QUIZARTINIB] below 600?
Result: Criterion met

Task: Just wondering, is Total Cell Count of CC(C)COc1ccc(CNC(=O)N(Cc2ccc(F)cc2)C2CCN(C)CC2)cc1 [PIMAVANSERIN] below 600?
Result: Criterion met

Task: Just wondering, is Total Cell Count of CN1CCN(c2cc(-c3ccccc3)nc(N)n2)CC1 below 600?
Result: Criterion not met

Task: Just wondering, is Total Cell Count of CC[C@@H](C)Nc1nc(C)nc2c(-c3ccc(OC)nc3C)c(C)nn12 [PEXACERFONT] below 600?
Result: Criterion met

Task: Just wondering, is Total Cell Count of Cc1cccc(NC(=O)CN2CCC(c3ccccn3)CC2)c1.Cl.Cl below 600?
Result: Criterion met
